Recorded values, source paper PMC9516332.

Tested on: 134 cancer cell lines
Assay: Cell viability assay (ATPlite, 72 hours), IC50 on cancer cell line panel
Settings: Homo sapiens, KATO III, read-out: IC50 in cell proliferation assay, KATO III cell line (FGFR2 amplification)
pIC50: −log10 of the molar value.
Assign 1 whenever pIC50 does not fall below 6; assign -1 whenever it does.

Solved cases below.
COc1ccc(CN2C3CC2CN(c2ccc(-c4cc(OCC(C)(C)O)cn5ncc(C#N)c45)cn2)C3)cn1 = 1
Cn1cnc2c(F)c(Nc3ccc(Br)cc3Cl)c(C(=O)NOCCO)cc21 = -1

hey, is pIC50 for this one >= 6? CC(=O)Nc1cccc(-n2c(=O)n(C3CC3)c(=O)c3c(Nc4ccc(I)cc4F)n(C)c(=O)c(C)c32)c1 1

hey, is pIC50 for this one >= 6? CCCS(=O)(=O)Nc1ccc(F)c(C(=O)c2c[nH]c3ncc(-c4ccc(Cl)cc4)cc23)c1F -1

hey, is pIC50 for this one >= 6? CC(C)(C)c1nc(-c2cccc(NS(=O)(=O)c3c(F)cccc3F)c2F)c(-c2ccnc(N)n2)s1 -1

hey, is pIC50 for this one >= 6? CO[C@]1(C(=O)N[C@@H](C)c2ccc(-n3cc(F)cn3)nc2)CC[C@H](c2nc(C)cc(Nc3cc(C)[nH]n3)n2)CC1 1

hey, is pIC50 for this one >= 6? Cc1nc(NC(=O)N2CCC[C@H]2C(N)=O)sc1-c1ccnc(C(C)(C)C(F)(F)F)c1 -1

----------
# Lookup of reported inhibition at 1 µM keyed by entry
Biological target: UniProt Q8TD19
Sequence (Q8TD19 1-979): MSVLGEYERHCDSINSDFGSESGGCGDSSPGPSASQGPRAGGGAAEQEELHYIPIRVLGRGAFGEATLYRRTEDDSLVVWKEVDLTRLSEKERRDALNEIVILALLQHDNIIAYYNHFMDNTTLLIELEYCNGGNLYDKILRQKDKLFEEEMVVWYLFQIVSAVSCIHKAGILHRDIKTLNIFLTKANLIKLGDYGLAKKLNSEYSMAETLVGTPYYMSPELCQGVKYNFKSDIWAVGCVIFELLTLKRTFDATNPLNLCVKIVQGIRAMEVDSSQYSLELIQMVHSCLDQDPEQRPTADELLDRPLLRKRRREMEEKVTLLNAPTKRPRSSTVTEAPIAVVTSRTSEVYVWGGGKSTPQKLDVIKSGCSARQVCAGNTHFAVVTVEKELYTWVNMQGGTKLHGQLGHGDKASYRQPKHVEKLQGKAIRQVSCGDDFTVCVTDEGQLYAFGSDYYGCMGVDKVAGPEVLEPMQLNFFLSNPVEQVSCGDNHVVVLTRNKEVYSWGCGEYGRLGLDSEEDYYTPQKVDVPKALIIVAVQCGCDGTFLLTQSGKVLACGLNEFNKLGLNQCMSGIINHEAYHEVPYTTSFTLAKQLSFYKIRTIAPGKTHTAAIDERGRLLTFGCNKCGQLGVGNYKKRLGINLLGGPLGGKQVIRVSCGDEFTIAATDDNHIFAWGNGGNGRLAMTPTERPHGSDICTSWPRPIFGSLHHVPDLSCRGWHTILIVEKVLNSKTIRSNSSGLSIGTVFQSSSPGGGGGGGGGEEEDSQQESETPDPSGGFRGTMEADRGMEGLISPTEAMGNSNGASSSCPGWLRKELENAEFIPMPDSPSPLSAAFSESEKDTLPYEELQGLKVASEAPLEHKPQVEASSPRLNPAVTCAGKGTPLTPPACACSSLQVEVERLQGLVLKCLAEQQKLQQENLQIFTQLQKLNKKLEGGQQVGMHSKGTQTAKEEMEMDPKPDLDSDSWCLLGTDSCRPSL
Assay: Kinase panel profiling at 1 µmol/L (MSA or IMAP), percentage inhibition
Type: biochemical
Conditions: NEK9; 1 µmol/L single concentration; read-out: %-inhibition, NEK9
Hi! Could you send only the number? It should be in %, unit omitted.

Below, 5 molecules whose answers are already recorded.
FC(F)(F)c1ccc(CNc2ccc(Cc3c[nH]c4ncc(Cl)cc34)cn2)cn1 = 1.33
Cc1nc(NC(=O)N2CCC[C@H]2C(N)=O)sc1-c1ccnc(C(C)(C)C(F)(F)F)c1 = 2.8
CN1CCN(c2ccc(C(=O)Nc3n[nH]c4ccc(Cc5cc(F)cc(F)c5)cc34)c(NC3CCOCC3)c2)CC1 = 17
CO[C@]1(C(=O)N[C@@H](C)c2ccc(-n3cc(F)cn3)nc2)CC[C@H](c2nc(C)cc(Nc3cc(C)[nH]n3)n2)CC1 = 16
COC(=O)N[C@@H](C)CNc1nccc(-c2cn(C(C)C)nc2-c2cc(Cl)cc(NS(C)(=O)=O)c2F)n1 = -4.26

Note to self: inhibition at 1 µM recorded for COc1cc2ncnc(Nc3ccc(F)c(Cl)c3)c2cc1NC(=O)/C=C/CN1CCCCC1 was -1.05

Note to self: inhibition at 1 µM recorded for Cn1cnc2c(F)c(Nc3ccc(Br)cc3F)c(C(=O)NOCCO)cc21 was -6.59

Note to self: inhibition at 1 µM recorded for COc1ccc(CN2C3CC2CN(c2ccc(-c4cc(OCC(C)(C)O)cn5ncc(C#N)c45)cn2)C3)cn1 was -0.802

Note to self: inhibition at 1 µM recorded for CCn1c(=O)c(-c2cc(NC(=O)Nc3ccccc3)c(F)cc2Br)cc2cnc(NC)cc21 was -2.78

Note to self: inhibition at 1 µM recorded for Cn1cc(-c2cc3c(N4CCN(c5ncc([C@@](C)(N)c6ccc(F)cc6)cn5)CC4)ncnn3c2)cn1 was 30

Note to self: inhibition at 1 µM recorded for CCN1C(=O)N(c2c(F)c(OC)cc(OC)c2F)Cc2cnc3[nH]c(CN4CCOCC4)cc3c21 was -1.57

Note to self: inhibition at 1 µM recorded for C=CC(=O)N1CCC([C@@H]2CCNc3c(C(N)=O)c(-c4ccc(Oc5ccccc5)cc4)nn32)CC1 was -2

Note to self: inhibition at 1 µM recorded for C[C@H]1Oc2cc(cnc2N)-c2c(nn(C)c2C#N)CN(C)C(=O)c2ccc(F)cc21 was 6

Note to self: inhibition at 1 µM recorded for CCc1nc(C(N)=O)c(Nc2ccc(N3CCC(N4CCN(C)CC4)CC3)c(OC)c2)nc1NC1CCOCC1 was 21

Note to self: inhibition at 1 µM recorded for Cc1cc(Nc2ncnc3ccc(NC4=NC(C)(C)CO4)cc23)ccc1Oc1ccn2ncnc2c1 was -2

----------
# Lookup of reported inhibition at 1 µM keyed by entry
Molecular target: panel of 255 wild-type kinases (Homo sapiens)
Test: Kinase panel profiling at 1 µmol/L (MSA or IMAP), percentage inhibition
Assay type: biochemical
Details: kinase PKCε; 1 µmol/L single concentration; read-out: %-inhibition at 1 µmol/L, PKCε
Hi! Could you send only the number? It should be in %, unit omitted.

Below, 5 compounds whose answers are already recorded.
CN1CCN(c2ccc(C(=O)Nc3n[nH]c4ccc(Cc5cc(F)cc(F)c5)cc34)c(NC3CCOCC3)c2)CC1 = 27
C[C@H]1Oc2cc(cnc2N)-c2c(nn(C)c2C#N)CN(C)C(=O)c2ccc(F)cc21 = 10
Cc1cc(Nc2ncnc3ccc(NC4=NC(C)(C)CO4)cc23)ccc1Oc1ccn2ncnc2c1 = -0.0549
Cc1nc(NC(=O)N2CCC[C@H]2C(N)=O)sc1-c1ccnc(C(C)(C)C(F)(F)F)c1 = 15
CCN1C(=O)N(c2c(F)c(OC)cc(OC)c2F)Cc2cnc3[nH]c(CN4CCOCC4)cc3c21 = 5

Note to self: inhibition at 1 µM recorded for CCN1CCN(c2ccc(Nc3cc(N(C)C(=O)Nc4c(Cl)c(OC)cc(OC)c4Cl)ncn3)cc2)CC1 was 4.68

Note to self: inhibition at 1 µM recorded for Cn1cc(-c2cc3c(N4CCN(c5ncc([C@@](C)(N)c6ccc(F)cc6)cn5)CC4)ncnn3c2)cn1 was -2.54

Note to self: inhibition at 1 µM recorded for CCc1nc(C(N)=O)c(Nc2ccc(N3CCC(N4CCN(C)CC4)CC3)c(OC)c2)nc1NC1CCOCC1 was 27

Note to self: inhibition at 1 µM recorded for O=C(Nc1cnn2ccc(N3CCC[C@@H]3c3cc(F)ccc3F)nc12)N1CC[C@H](O)C1 was 8

Note to self: inhibition at 1 µM recorded for CO[C@]1(C(=O)N[C@@H](C)c2ccc(-n3cc(F)cn3)nc2)CC[C@H](c2nc(C)cc(Nc3cc(C)[nH]n3)n2)CC1 was 0.425

Note to self: inhibition at 1 µM recorded for COC(=O)N[C@@H](C)CNc1nccc(-c2cn(C(C)C)nc2-c2cc(Cl)cc(NS(C)(=O)=O)c2F)n1 was -7

----------
Biological target: panel of 255 wild-type kinases (Homo sapiens)
Assay: Kinase panel profiling at 1 µmol/L (MSA or IMAP), percentage inhibition
Assay type: biochemical
Conditions: kinase EPHA2; 1 µmol/L single concentration; read-out: %-inhibition at 1 µmol/L, EPHA2
# Lookup of reported inhibition at 1 µM keyed by entry
Hi! Could you send only the number? It should be in %, unit omitted.

Below, 5 compounds whose answers are already recorded.
Cn1cc(-c2cc3c(N4CCN(c5ncc([C@@](C)(N)c6ccc(F)cc6)cn5)CC4)ncnn3c2)cn1 = 60
CCN1C(=O)N(c2c(F)c(OC)cc(OC)c2F)Cc2cnc3[nH]c(CN4CCOCC4)cc3c21 = -3.69
CCN1CCN(c2ccc(Nc3cc(N(C)C(=O)Nc4c(Cl)c(OC)cc(OC)c4Cl)ncn3)cc2)CC1 = 0.318
Cn1cnc2c(F)c(Nc3ccc(Br)cc3F)c(C(=O)NOCCO)cc21 = 9
C[C@H](Nc1ncnc2nc[nH]c12)c1cc2cccc(Cl)c2c(=O)n1-c1ccccc1 = -6.36

I looked up COc1cc2ncnc(Nc3ccc(F)c(Cl)c3)c2cc1NC(=O)/C=C/CN1CCCCC1 and its inhibition at 1 µM for panel of 255 wild-type kinases (Homo sapiens) was 14

I looked up Cc1nc(NC(=O)N2CCC[C@H]2C(N)=O)sc1-c1ccnc(C(C)(C)C(F)(F)F)c1 and its inhibition at 1 µM for panel of 255 wild-type kinases (Homo sapiens) was -6

I looked up O=C(Nc1cnn2ccc(N3CCC[C@@H]3c3cc(F)ccc3F)nc12)N1CC[C@H](O)C1 and its inhibition at 1 µM for panel of 255 wild-type kinases (Homo sapiens) was 0

I looked up FC(F)(F)c1ccc(CNc2ccc(Cc3c[nH]c4ncc(Cl)cc34)cn2)cn1 and its inhibition at 1 µM for panel of 255 wild-type kinases (Homo sapiens) was 7.59

I looked up Cn1cnc2c(F)c(Nc3ccc(Br)cc3Cl)c(C(=O)NOCCO)cc21 and its inhibition at 1 µM for panel of 255 wild-type kinases (Homo sapiens) was -1.4
